target_entity: GABA A receptor alpha-6/beta-2/gamma-2 (Homo sapiens, UniProt P18507+P47870+Q16445)
Sequence (P47870 whole entry): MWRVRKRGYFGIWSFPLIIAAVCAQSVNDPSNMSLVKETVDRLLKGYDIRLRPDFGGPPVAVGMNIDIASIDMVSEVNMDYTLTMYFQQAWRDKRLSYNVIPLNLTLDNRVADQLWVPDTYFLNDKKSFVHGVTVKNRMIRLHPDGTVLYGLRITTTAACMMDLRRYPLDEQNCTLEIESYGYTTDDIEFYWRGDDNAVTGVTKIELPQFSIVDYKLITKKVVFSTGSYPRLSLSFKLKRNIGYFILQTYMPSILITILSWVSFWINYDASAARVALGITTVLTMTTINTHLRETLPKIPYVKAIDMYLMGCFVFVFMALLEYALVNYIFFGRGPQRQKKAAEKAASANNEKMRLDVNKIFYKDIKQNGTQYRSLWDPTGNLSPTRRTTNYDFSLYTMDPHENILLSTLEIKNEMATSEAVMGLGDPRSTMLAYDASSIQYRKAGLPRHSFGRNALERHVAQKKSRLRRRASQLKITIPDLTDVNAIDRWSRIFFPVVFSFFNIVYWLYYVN
Sequence (P18507 whole entry): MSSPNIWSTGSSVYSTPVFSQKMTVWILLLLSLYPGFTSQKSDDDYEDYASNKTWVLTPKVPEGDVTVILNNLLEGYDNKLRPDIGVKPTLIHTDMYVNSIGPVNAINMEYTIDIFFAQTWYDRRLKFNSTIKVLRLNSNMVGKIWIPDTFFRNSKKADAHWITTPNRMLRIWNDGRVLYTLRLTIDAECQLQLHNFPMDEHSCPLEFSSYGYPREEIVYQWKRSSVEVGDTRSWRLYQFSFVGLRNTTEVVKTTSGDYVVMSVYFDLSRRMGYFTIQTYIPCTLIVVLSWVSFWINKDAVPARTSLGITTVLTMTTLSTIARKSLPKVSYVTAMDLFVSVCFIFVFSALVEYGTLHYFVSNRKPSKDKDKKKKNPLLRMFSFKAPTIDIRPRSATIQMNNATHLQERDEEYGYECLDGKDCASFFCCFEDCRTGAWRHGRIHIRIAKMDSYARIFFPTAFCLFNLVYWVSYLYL
Sequence (Q16445 whole entry): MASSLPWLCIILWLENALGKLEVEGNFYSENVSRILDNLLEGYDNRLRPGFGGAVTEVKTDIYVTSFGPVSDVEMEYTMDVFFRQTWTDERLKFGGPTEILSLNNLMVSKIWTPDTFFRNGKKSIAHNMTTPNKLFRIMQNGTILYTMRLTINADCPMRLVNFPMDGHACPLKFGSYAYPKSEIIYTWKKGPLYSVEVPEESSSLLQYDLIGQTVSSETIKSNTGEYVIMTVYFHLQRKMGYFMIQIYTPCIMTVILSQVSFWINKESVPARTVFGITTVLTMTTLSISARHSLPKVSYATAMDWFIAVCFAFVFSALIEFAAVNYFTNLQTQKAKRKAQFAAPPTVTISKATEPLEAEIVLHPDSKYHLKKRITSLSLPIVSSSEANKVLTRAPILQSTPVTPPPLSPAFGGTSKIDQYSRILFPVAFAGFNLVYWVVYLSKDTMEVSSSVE
protocol_notes: Binding affinity for human GABA-A receptor alpha-6-beta-2-gamma-2 expressed in L(tk-) cell membranes
measure_name: Ki (nM)
Express it in nM; write the number only.

Please review the entries below; each comes with its answer.
- smiles: "CN1Cc2c(C(=O)OC(C)(C)C)ncn2-c2ccc(Br)cc2C1=O"
  target_entity: "GABA A receptor alpha-6/beta-2/gamma-2 (Homo sapiens, UniProt P18507+P47870+Q16445)"
  Ki (nM): 9.4
- smiles: "CCOC(=O)c1ncn2c1CN(C)C(=O)c1cc(C#C[Si](C)(C)C)ccc1-2"
  target_entity: "GABA A receptor alpha-6/beta-2/gamma-2 (Homo sapiens, UniProt P18507+P47870+Q16445)"
  Ki (nM): 114
- smiles: "CCc1ccc2c(c1)C(=O)N(C)Cc1c(C(=O)OC(C)(C)C)ncn1-2"
  target_entity: "GABA A receptor alpha-6/beta-2/gamma-2 (Homo sapiens, UniProt P18507+P47870+Q16445)"
  Ki (nM): 22.9

Task: For the compound "C#Cc1ccc2c(c1)C(=O)N(C)Cc1c(C(=O)OC(C)(C)C)ncn1-2" , give its reported Ki.
Result: 5.1

Task: For the compound "CCOC(=O)c1ncn2c1CN(C)C(=O)c1cc(CC)ccc1-2" , give its reported Ki.
Result: 176

These data points were gathered from ChEMBL document CHEMBL1129572.
